Target: His8-TEV-LC3B (1 to 125) (human, UniProt Q9GZQ8 1-120)
Assay: SPR
pKd: −log10 of the molar value.

Binder | pKd
GST-PreScission-p62 FIR 4P (domain or fragment) MESDNCSGGDDDWTHLSSKEVDPETGELQSLQMPESEGPEELDPEQEGPTGLKEA | 6.09
